B1: HDV Ribozyme (parent)
chain: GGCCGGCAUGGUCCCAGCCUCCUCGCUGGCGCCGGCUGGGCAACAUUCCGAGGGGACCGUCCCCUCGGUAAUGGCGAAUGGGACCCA

variants of: B1; test: self-cleavage, relative activity (ratio to wild type); higher = more cleavage; co-transcriptional
test.readout: self-cleavage
Enter the number alone.

C4U G55C    0.656

Input line: Indicate the recorded self-cleavage value for this variant: C26U U37A
Output line: 0.462

Input line: Look up and report measured self-cleavage for this entry: G54U C64G
Output line: 0.831

Input line: Using known records, supply self-cleavage for C24U A71G
Output line: 0.648

Input line: Return self-cleavage for the following variant: C13A C32G
Output line: 0.0346

Input line: Look up and state reported self-cleavage for A16G C66G
Output line: 0.743

Attribution: the RNAGym collection of RNA variant scans (doi:10.7554/elife.80360)
